Hello, the source for this data is paper PMC3245783, in case you need it.

- Measured Target: FLAT-expressing Hek293 cells (Rattus norvegicus, UniProt P97612, DEL9-76)
- Assay Comment: [3H]-anandamide accumulation in FLAT-expressing Hek293 cells
Quantity Kind: IC50
Record the result as a number with its unit.

Request: Field request: IC50 | item: `CCCCCC=CCC=CCC=CCC=CCCCC(=O)Nc1ccc(O)cc1`
Result: 4 µM
